From: PubChem BioAssay (NCI)

test system: OVCAR-4 ovarian; experiment: NCI-60 one-dose screen, 48 h; conditions: 10 µM unless noted
About 83,000 compounds went through this panel and 20% of them were active in at least one assay; those are over-represented in the sample as a whole. Activity calls are given as the source filed them. Rule for the calls: active = growth percent below 10; inactive = the rest.
Respond with a class label; see active, inactive

Please review the entries below; each comes with its answer.
- CC(C)CC1C(=O)N2CCC[C@H]2C2(O)O[C@](NC(=O)C3C=C4c5cccc6[nH]c(Br)c(c56)C[C@H]4N(C)C3)(C(C)C)C(=O)N12 (stereo partly drawn): inactive
- COc1ccc(-n2nc(C)c3c(Nc4ccc(NC(=O)Nc5cccc(C(F)(F)F)c5)cc4)ncnc32)cc1: active
- COc1ccc(S(=O)(=O)N2CCN(C)CC2)cc1NC(=O)c1[nH]c(C)c2c1CCCCC2=O: inactive

Q: Lab log entry: "CN1CCN(CCCOc2cccc3nc(Nc4ccc(Cl)c(F)c4)ccc23)CC1" — outcome as called in the assay?
A: inactive

Q: Lab log entry: "CCOc1nc(-c2ccccc2)cc2c(O)c(C(=O)O)[nH]c(=O)c12" — outcome as called in the assay?
A: inactive

Q: Lab log entry: "COc1cccc(/C=N/NC(=O)c2ccccc2Nc2ccnc(C(F)(F)F)c2)c1O" — outcome as called in the assay?
A: inactive

Q: Lab log entry: "CSc1ccc(-c2ccccc(=O)c2O)cc1" — outcome as called in the assay?
A: inactive

Q: Lab log entry: C/C1=C\CC[C@@]2(C)O[C@H]2[C@H]2OC(=O)C(CN3CCN(CC4C(=O)O[C@H]5[C@H]4CC/C(C)=C/CC[C@@]4(C)O[C@@H]54)CC3)[C@@H]2CC1 (stereo partly drawn) — outcome as called in the assay?
A: inactive

Q: Lab log entry: "c1ccc2[nH]c(-c3ccc(Nc4nc(N5CCCC5)nc5[nH]ncc45)cc3)nc2c1" — outcome as called in the assay?
A: inactive

Q: Lab log entry: "COc1ccc(/C=C2\Oc3cc(OCCCCN4CCCC4)ccc3C2=O)cc1" — outcome as called in the assay?
A: inactive

Q: Lab log entry: "Clc1ccc2c(NCCCCNc3nc(N4CCCCC4)nc4ccccc34)ccnc2c1" — outcome as called in the assay?
A: inactive

Q: Lab log entry: "N=C(N)c1ccc(-c2ccc(-c3ccc4ccccc4c3)s2)s1" — outcome as called in the assay?
A: active

Q: Lab log entry: "COc1cc(-c2nn(-c3ccc(C)cc3)cc2C(=O)O)ccc1O" — outcome as called in the assay?
A: inactive

Q: Lab log entry: "N#CN1CCC[C@H]1C(=O)N1CCc2c(-c3[nH]nc4ncccc34)cccc21" — outcome as called in the assay?
A: inactive

Q: Lab log entry: COc1cc(C)c(C2C(C#N)=C(N)Oc3n[nH]c(-c4cccs4)c32)cc1C(C)C (stereo not drawn) — outcome as called in the assay?
A: inactive

Q: Lab log entry: "O=S(=O)(Nc1ccc(Br)c(Cl)c1)c1ccc(-c2cnc(C3CC3)o2)cc1" — outcome as called in the assay?
A: inactive

Q: Lab log entry: C=C(C)C1CC(O)C2(C)CCCC3C2C1CC(C)C3(C)CC/C(C)=C/C(O)C1CCC(=O)c2c(OC)cc(OC)cc21 (stereo not drawn) — outcome as called in the assay?
A: inactive

Q: Lab log entry: "O=C1c2cccc3cccc(c23)C(=O)N1CCCCCN1CCN(CCCCCOc2ccc(-c3nc4ccc(N5CCOCC5)cc4[nH]3)cc2)CC1" — outcome as called in the assay?
A: inactive

====

tested on: PC-3 prostate; assay: NCI-60 one-dose screen, 48 h (100 = growth as untreated, 0 = no growth, -100 = all killed); conditions: 10 µM unless noted
Compounds without any hit were thinned out: in the full panel of roughly 83,000, 20% have a hit.
Quantity measured: growth (%)
Give just the numeric value; % need not be written.

Examples with answers:
- O=C(/C=C/c1cccc(Cl)c1)c1ccc(O)c(CN2CCN(c3cc4c(cc3F)c(=O)c(C(=O)O)cn4C3CC3)CC2)c1: 19.9
- CC(C)c1c(C(=O)c2ccccc2)c(-c2ccccc2)c(-c2ccc(F)cc2)n1CC[C@@H](O)C[C@@H](O)CC(=O)O: 37
- O=C(/C=C/c1cccc([N+](=O)[O-])c1)c1ccc(O)c(CN2CCN(c3cc4c(cc3F)c(=O)c(C(=O)O)cn4C3CC3)CC2)c1: 18.4
- COc1cc2nc(N3CCCC3)nc(NCc3ccccc3)c2cc1OC: 67.2

Q: Lab note: need growth with PC-3 prostate for entry "N#Cc1nnn(-c2ccc(S(N)(=O)=O)cc2)c1NC(=O)CCl" , please look it up.
A: 89.7

====

Test system: SF-539 CNS
Test: NCI-60 one-dose screen, 48 h (100 = growth as untreated, 0 = no growth, -100 = all killed)
Conditions: 10 µM unless noted
Description: Cells are grown in 96 well plates and exposed to the test compound for 48 hours. Compounds are tested at a single concentration, which is 10^-5 M for most compounds. The reported endpoint is percent growth (GI% or GIPRCNT), where numbers from 0 - 100% represent growth inhibition, and numbers from -100% - 0 represent cell death. For example, a value of 40 represents 60% growth inhibition. A value of 0 means no net growth occurred over the course of the experiment. […]
Compounds without any hit were thinned out: in the full panel of roughly 83,000, 20% have a hit. Calls of active or inactive are those of the source. The calls were made as follows: active = growth percent below 10; inactive = the rest.
Quantity measured: growth

Examples with answers:
• CN(C)C(=S)N=Nc1c(O)[nH]c2ccccc12 = 9.37% (active)
• COc1cc2c(cc1-c1c(C)noc1C)ncc1nc(C3CCCCC3)n([C@H](C)COC(F)F)c12 = 34.7% (inactive)
• Nc1ccc(-c2cc3c(NCc4ccccc4)ncnc3s2)cc1 = 86% (inactive)

Q: Fill in: growth of "N#Cc1cnn(-c2nc3c(Cl)cccc3s2)c1N" is ___
A: 82.2% (inactive)

Q: Fill in: growth of "Cn1ccnc1C(=O)/C=C/c1ccccc1" is ___
A: -38% (active)

Q: Fill in: growth of "CSc1nc(Nc2cccc(NC(=O)CCl)c2)c(C#N)c(-c2cccc([N+](=O)[O-])c2)n1" is ___
A: 73.3% (inactive)

Q: Fill in: growth of "O=C(COc1ccc(/C=C2\COc3ccccc3C2=O)cc1)Nc1nccs1" is ___
A: 85.9% (inactive)

Q: Fill in: growth of "FC(F)(F)c1[nH]ncc1-c1nc2ccc3n[nH]c(C#Cc4cccnc4)c3c2c2c1CCCC2" is ___
A: 19.6% (inactive)

====

# maps each entry to its growth
system: SW-620 colon; experiment: NCI-60 one-dose screen, 48 h (100 = growth as untreated, 0 = no growth, -100 = all killed); settings: 10 µM unless noted
Compounds without any hit were thinned out: in the full panel of roughly 83,000, 20% have a hit.
Give just the numeric value; % need not be written.

Examples with answers:
• Nc1n[nH]c2cc(F)c([C@@H]3Nc4ccc5[nH]ncc5c4[C@H]4C5CCC(C5)[C@@H]34)cc12 (some centres undefined) = 21.7
• COc1ccc(-c2nc3ccc(-c4nc5ccc(N6CCN(c7ccc(F)cc7)CC6)cc5[nH]4)cc3[nH]2)cc1OC = 46.5
• COc1cccc(-c2nc3sccn3c2-c2ccnc(NCCNS(=O)(=O)c3ccccc3)c2)c1 = 40.8
• COc1ccc(NC(=O)c2ccc(/C=C/C(=O)c3ncc[nH]3)cc2)cc1 = 34.5
• CCCCCCCCCCCCC[N+](C)(C)Cc1ccccc1 = -37.6
• COc1cc2c(cc1O)CC[C@@H]1[C@@H]2CC[C@]2(C)[C@@H](OCCN(C)C)CC[C@@H]12 = 13.1
• C=CC(COC(c1ccccc1)(c1ccccc1)c1ccccc1)N(CC)CC (centres undefined) = 51.3
• CC(C)(CCCN=C(N)Nc1ccc(Cl)cc1)c1ccc(F)cc1 = 43.4

Now look at this one.
Q: Lab note: need growth with SW-620 colon for entry CCc1nc(N)nc(N)c1C#CC(C)c1cc(-c2ccnc(C)c2)c2oc(C)nc2c1 (centres undefined) , please look it up.
A: 16.9

====

tested on: TK-10 renal; assay: NCI-60 one-dose screen, 48 h; details: 10 µM unless noted
The panel holds about 83,000 compounds, 20% with a hit somewhere; the sample as a whole holds those more often. Active and inactive are the calls of the source. How the source made its calls: active means growth percent below 10; inactive means the rest.
Respond with a class label; see true (1) for active, false (0) for inactive

Q: Lab log entry: "COc1ccc2[nH]cc(-c3noc(C(=O)c4cn(C)c5ccc(F)cc45)n3)c2c1" — outcome as called in the assay?
A: false (0)

====

tested on: OVCAR-5 ovarian; experiment: NCI-60 one-dose screen, 48 h; conditions: 10 µM unless noted
Compounds without any hit were thinned out: in the full panel of roughly 83,000, 20% have a hit. The source made the active and inactive calls. The calls were made as follows: active = growth percent below 10; inactive = the rest.
Respond with a class label; see active, inactive

* FC(F)(F)c1nc2c(NCc3ccc(-c4ccccc4)cc3)cccc2[nH]1 | inactive
* CC(C)C[C@@H](NC(=O)[C@@H](Cc1ccccc1)NC(=O)c1cnccn1)B1Oc2ccc(C[C@H](NC(=O)[C@H](Cc3ccc4c(c3)OB([C@@H](CC(C)C)NC(=O)[C@@H](Cc3ccccc3)NC(=O)c3cnccn3)O4)NC(=O)[C@@H](N)CC3CCC4OB([C@@H](CC(C)C)NC(=O)[C@@H](CC5CCCCC5)NC(=O)C5CNCCN5)OC4C3)C(=O)NCCCC[C@@H]3NC(=O)[C@@H](Cc4ccccc4)NC(=O)[C@H](CC(=O)O)NC(=O)CNC(=O)[C@H](CCCNC(=N)N)NC3=O)cc2O1 (some centres not stated) | active
* FC(F)(F)c1[nH]ncc1-c1nc2ccc3n[nH]c(C#Cc4cccnc4)c3c2c2c1CCCC2 | inactive
* COc1ccc(-c2cc(Nc3ccnc(N4CCOCC4)n3)on2)cc1 | inactive
* O=c1c2c3c(sc2nc(N/N=C/c2cn(-c4ccccc4)nc2-c2ccc(Cl)cc2)n1Cc1ccccc1)CCCC3 | inactive

Q: Lab log entry: "CC(C)(C)CC(C)(C)c1ccc(OCCOCC[N+](C)(C)Cc2ccccc2)cc1" — outcome as called in the assay?
A: inactive

Q: Lab log entry: CCOc1cc2c(cc1OCC)C(c1cc(OC)c(O)cc1Cl)NCC2 (configuration not stated) — outcome as called in the assay?
A: inactive

Q: Lab log entry: "O=C(C(=O)c1ccc2c(c1)OCO2)c1ccc2c(c1)OCO2" — outcome as called in the assay?
A: inactive

Q: Lab log entry: "O=C(Cc1ccc(/C=C/C(=O)c2ncc[nH]2)cc1)Nc1ccccc1" — outcome as called in the assay?
A: inactive

Q: Lab log entry: "CCN=C1C=CC(=C(c2ccc(N)cc2)c2ccc(N(CC)CC)c(C)c2)C=C1" — outcome as called in the assay?
A: inactive
